Test: TROY pathway blockers in reporter cells – Q293 LMP1-TROYcd cells, NF-kB luciferase, uHTS, primary screen (AID 1347056)
Conditions: 4 h, at 10 µM, hits give high values
Out of some 360,000 compounds screened, about 3,600 (1%) were called active. Shown is part of a subset that was picked to be rich in actives.
Measurement name: inhibition (%)
Numeric only. Scale: %

Reference set (4 entries):
In [3]: df
Out[3]:
                                   compound  unit_annotation  reported
0  CC(NC(=O)c1ccc(S(=O)(=O)Nc2ccccc2)cc1)c1ccc(S(N)(=O)=O)cc1 (centres undefined)                %      2.55
1  CCOc1ccc(CCNC(=O)CCc2nnc3ccc(N4CCCC4)nn23)cc1OCC                %      3.54
2  Cc1ccc(OCC(=O)c2cc(C)n(Cc3ccco3)c2C)c([N+](=O)[O-])n1                %     -2.73
3  COCCn1c(C)cc(C(=O)COC(=O)CNC(=O)c2ccco2)c1C                %     -1.63

Moving on to another compound below.
## Task Identify measured inhibition associated with COc1ccc(-c2nn(-c3ccccc3)cc2CN2CCCO2)c(F)c1
## Result -17.1

====

Experiment: TROY pathway blockers in reporter cells – Q293 LMP1-TROYcd cells, NF-kB luciferase, uHTS, primary screen (AID 1347056)
Details: 4 h, at 10 µM, hits give high values
In all, about 360,000 compounds went through this assay and about 3,600 (1%) were called active. This is one part of a sample in which actives are shown more often than they occur.
Recorded inhibition, one value per entry.
All answers are understood in %, so give the number only.

                                   compound  measurement_name  unit_annotation  reported
0             Cc1ccc2nc(-c3ccc(Br)cc3)cn2c1        inhibition                %      71.4
1  COc1ccc(C(CNC(=O)c2ccc(OCc3cscn3)cc2)N2CCCC2)cc1 (centres undefined)        inhibition                %      0.55
2      COc1cccc2[nH]c(C(=O)NCCc3ccccc3)cc12        inhibition                %     -24.7

Alright, here's another compound for you.
## Task For the compound CCN1CCCC1CNC(=O)c1cc2cc(OC)c(OC)cc2[nH]1 (centres undefined) , give its measured inhibition value.
## Result -3.54

====

Assay: TROY pathway blockers in reporter cells – Q293 LMP1-TROYcd cells, NF-kB luciferase, uHTS, primary screen (AID 1347056)
Settings: 4 h, at 10 µM, hits give high values
Screen size: about 360,000 compounds; about 3,600 (1%) were called active. The full list was thinned out, with actives kept by preference.
// FALSE strictly below 10% in inhibition; TRUE otherwise

## Task For this compound, is measured inhibition 10% or higher? COc1ccc(C(=O)/C=C/Nc2ccccn2)cc1
## Result TRUE

## Task Would you say O=[N+]([O-])/C(N=Nc1ccccc1)=N\Nc1ccccc1 shows inhibition at minimum 10%?
## Result FALSE

## Task Determine whether this compound has inhibition no lower than 10%: CN(CC(=O)NCc1ccncc1)S(=O)(=O)c1ccc(Br)cc1
## Result FALSE

## Task Determine whether this compound has inhibition no lower than 10%: COc1ccc(NC(=O)CCNC(=O)Cn2cnc3sc4c(c3c2=O)CCCC4)cc1OC
## Result TRUE

## Task Entry O=C(CC(O)(C(F)(F)F)C(F)(F)F)Nc1ccc(Cl)c(Cl)c1 : is its inhibition no less than 10%?
## Result TRUE

## Task Threshold query (inhibition >= 10%) on COc1ccc(N(CC(=O)NC(C)(C)C)C(=O)c2ccco2)cc1
## Result FALSE
